- Test system: OCI-AML2
- protocol notes: cell viability relative to vehicle control; higher = less cytotoxic;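 also: after 48 h exposure read by CellTiter-Glo luminescence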
- conditions used: 10 µM; SRSF2 genotype: P95H/wt
Threshold check on cell viability: strictly below 90% is condition met; on or above 90% is condition not met.

compound | label
Cn1c(=O)cc(C(=O)Nc2ccc3c(c2)OCCO3)c2ccccc21 | condition not met
COC(=O)N[C@H](C(=O)N1CCC[C@H]1c1ncc(-c2ccc(-c3ccc(-c4cnc([C@@H]5CCCN5C(=O)[C@@H](NC(=O)OC)C(C)C)[nH]4)cc3)cc2)[nH]1)C(C)C | condition met
O=c1cc(-c2ccc(O)c(O)c2O)oc2ccccc12 | condition not met
Cn1cc(-c2ccc3nnc(C(F)(F)c4ccc5ncccc5c4)n3n2)cn1 | condition met
CC(C)c1c2cc(-c3ccnc(NC4CCC(NC5CCOCC5)CC4)n3)ccc2nn1C (centres undefined) | condition met
Nc1ncnc2c1ncn2[C@@H]1O[C@H](CO)C[C@H]1O [Cordycepin] | condition not met
Nc1nccc(Oc2ccc3c(C(=O)Nc4cccc(C(F)(F)F)c4)cccc3c2)n1 | condition not met

---

- Test system: K562
- protocol notes: cell viability relative to vehicle control; higher = less cytotoxic
- conditions used: 10 µM; SRSF2 genotype: SRSF2 wt/wt
Counter-ions that a name gives are not always drawn.
cell viability values by entry

compound | subject of test | cell viability / %
Cc1ccc(Nc2c(F)cccc2Cl)c(CC(=O)O)c1 [Lumiracoxib (COX-189)] | K562 | 96.3
O=C(O)c1ccc(O)cc1 [4-Hydroxybenzoic acid] | K562 | 98.8
C[C@H]1CN(C[C@H](Cc2ccccc2)C(=O)NCC(=O)O)CC[C@@]1(C)c1cccc(O)c1 [Alvimopan dihydrate] | K562 | 101
C=C1C2CCC(C2)C1(C)CCC=C(C)CO (stereo not drawn) [Santalol] | K562 | 98.6
CO[C@]1(CC[C@@H](C)CO[C@@H]2O[C@H](CO)[C@@H](O)[C@H](O)[C@H]2O)O[C@H]2C[C@H]3[C@@H]4CC=C5C[C@@H](O[C@@H]6O[C@H](CO)[C@@H](O[C@@H]7O[C@@H](C)[C@H](O)[C@@H](O)[C@H]7O)[C@H](O)[C@H]6O[C@@H]6O[C@@H](C)[C@H](O)[C@@H](O)[C@H]6O)CC[C@]5(C)[C@H]4CC[C@]3(C)[C@H]2[C@@H]1C [Methylprotodioscin] | K562 | 1.3
O=C1NC(=O)C(=Cc2ccc(-c3ccc(F)cc3)o2)S1 (stereo in doubt) | K562 | 97.1
Oc1cccc(O)c1O [Pyrogallol] | K562 | 102
NN1CC(=O)NC1=O [1-Aminohydantoin Hydrochloride] | K562 | 97.1
CO[C@H]1C[C@@H]2CC[C@@H](C)[C@@](O)(O2)C(=O)C(=O)N2CCCC[C@H]2C(=O)O[C@H]([C@H](C)C[C@@H]2CC[C@@H](OCCO)[C@H](OC)C2)CC(=O)[C@H](C)/C=C(\C)[C@@H](O)[C@@H](OC)C(=O)[C@H](C)C[C@H](C)/C=C/C=C/C=C/1C [Everolimus (RAD001)] | K562 | 70.4
CO[C@@H]1[C@@H](OC)[C@H](C)[C@@](O)(CC(=O)O)O[C@H]1[C@H](C)[C@H]1O[C@@]2(CC[C@@](C)([C@H]3CC[C@@](C)([C@@H]4O[C@@H]([C@H]5O[C@](C)(O)[C@H](C)C[C@@H]5C)C[C@@H]4O[C@@H]4C[C@H](OC)[C@@H](OC)[C@H](C)O4)O3)O2)C[C@H](O)[C@H]1C [Maduramycin Ammonium] | K562 | 8.25
COc1ccc(-c2oc3c(CC=C(C)C)c(O[C@@H]4O[C@H](CO)[C@@H](O)[C@H](O)[C@H]4O)cc(O)c3c(=O)c2O[C@@H]2O[C@@H](C)[C@H](O)[C@@H](O)[C@H]2O[C@@H]2OC[C@@H](O)[C@H](O)[C@H]2O)cc1 [Epmedin B] | K562 | 102
CC1(C)S[C@@H]2[C@H](NC(=O)[C@H](NC(=O)N3CCNC3=O)c3ccccc3)C(=O)N2[C@H]1C(=O)O [Azlocillin sodium salt] | K562 | 81.5
COc1cc2oc(=O)ccc2cc1O [Isoscopoletin] | K562 | 96.4
